These data points were gathered from the supplement of paper PMC12350171.

System: S. enterica typhimurium tolC KO
Test: growth AUC normalised to DMSO control (median) (fraction of control); higher = less growth inhibition, active = hit call of the paper
Details: 20 µM
Structures can show the parent of a compound that is named as a salt.
Attribute Measured: growth AUC normalised to DMSO control
// return just the number, without any unit appended

Worked cases, growth AUC normalised to DMSO control given:
Compound	growth AUC normalised to DMSO control
Oc1c(Cl)cc(Cl)c2cccnc12	0.568
C[C@]12CC[C@@H]3c4ccc(O)cc4CC[C@H]3[C@@H]1CCC2=O	0.974
O=C(O)[C@H]1/C(=C/CO)O[C@@H]2CC(=O)N21 [Clavulanate potassium salt]	0.999
CCN(CC)CC#CCOC(=O)C(O)(c1ccccc1)C1CCCCC1 (stereo not drawn) [Oxybutynin chloride]	0.946
Clc1ccc(C(c2ccccc2Cl)C(Cl)Cl)cc1 (stereo not drawn)	0.957
CCC(=O)c1c(O)cc(O)cc1O	0.994

# return recorded growth AUC normalised to DMSO control for input CN(C)CCOc1ccc(/C(=C(/CCCl)c2ccccc2)c2ccccc2)cc1
0.983

# return recorded growth AUC normalised to DMSO control for input Cc1scc2c1N(C(=O)CN1CCN(C)CC1)c1ccccc1NC2=O [Telenzepine dihydrochloride]
0.999

* * *

System: Vibrio cholerae
Test: growth AUC normalised to DMSO control (fraction of control); higher = less growth inhibition, active = hit call of the paper
Conditions: 20 µM
Counter-ions that a name gives are not always drawn.
Below is a list of entries, each paired with its recorded growth AUC normalised to DMSO control value.
// return just the number, without any unit appended

Worked cases, growth AUC normalised to DMSO control given:
Compound	Measured On	growth AUC normalised to DMSO control
Cc1cccc(N(C)C(=S)Oc2ccc3ccccc3c2)c1 [Tolnaftate]	Vibrio cholerae	0.991
CCCCOc1ccc(CC(=O)NO)cc1 [Bufexamac]	Vibrio cholerae	1.01
C#C[C@]1(O)CC[C@H]2[C@@H]3CCC4=CC(=O)CC[C@@H]4[C@H]3CC[C@@]21C [Norethindrone]	Vibrio cholerae	0.996

# return recorded growth AUC normalised to DMSO control for input CCCCC(C)(O)C/C=C/[C@H]1[C@H](O)CC(=O)[C@@H]1CCCCCCC(=O)OC (mixture of isomers) [Misoprostol]
1.02

# return recorded growth AUC normalised to DMSO control for input CN(C)CCC(c1ccc(Cl)cc1)c1ccccn1 (stereo unspecified) [Chlorpheniramine maleate]
0.972

# return recorded growth AUC normalised to DMSO control for input CC(N)(Cc1ccc(O)c(O)c1)C(=O)O (stereo unspecified) [(L) Methyldopa]
1.01

* * *

System: P. vulgatus RND KO
Test: growth AUC normalised to DMSO control (median) (fraction of control); higher = less growth inhibition, active = hit call of the paper
Settings: 20 µM
Where a name gives a salt, the structure may show the parent alone.
Attribute Measured: growth AUC normalised to DMSO control
// return just the number, without any unit appended

Worked cases, growth AUC normalised to DMSO control given:
Compound	Measured On	growth AUC normalised to DMSO control
CS(=O)(=O)Nc1ccc([N+](=O)[O-])cc1Oc1ccccc1 [Nimesulide]	P. vulgatus RND KO	0.983
CN[C@@H]1[C@H](O[C@H]2[C@H](O[C@H]3[C@H](O)[C@@H](O)[C@H](NC(=N)N)[C@@H](O)[C@@H]3NC(=N)N)O[C@@H](C)[C@]2(O)CO)O[C@@H](CO)[C@H](O)[C@H]1O [Dihydrostreptomycin sulfate]	P. vulgatus RND KO	0.999
NCCc1c[nH]cn1 [Histamine dihydrochloride]	P. vulgatus RND KO	0.991
CC(C)=CCC1C(=O)N(c2ccccc2)N(c2ccccc2)C1=O [Feprazone]	P. vulgatus RND KO	1.04

// switching to the query compound
Give the observed growth AUC normalised to DMSO control of COC1=C(OC)C(=O)C(CCCCCCCCCCO)=C(C)C1=O [Idebenone] for P. vulgatus RND KO.
0.913

* * *

Tested on: Shigella flexneri
Assay: growth AUC normalised to DMSO control (fraction of control); higher = less growth inhibition, active = hit call of the paper
Settings: 20 µM
Counter-ions that a name gives are not always drawn.
Result category, one only: active, inactive

As a guide, the following entries are already answered.
Compound	Measured On	Group
Fc1ccc(C(c2ccc(F)cc2)N2CCN(C/C=C/c3ccccc3)CC2)cc1 [Flunarizine dihydrochloride]	Shigella flexneri	inactive
Clc1ccccc1C(c1ccccc1)(c1ccccc1)n1ccnc1 [Clotrimazole]	Shigella flexneri	inactive
C[C@]12CC[C@@H]3c4ccc(O)cc4CC[C@H]3[C@@H]1CCC2=O [Estrone]	Shigella flexneri	inactive
NC[C@@H]1O[C@H](O[C@H]2[C@@H](O)[C@H](O[C@@H]3[C@@H](O)[C@H](N)C[C@H](N)[C@H]3O[C@H]3O[C@H](CN)[C@@H](O)[C@H](O)[C@H]3N)O[C@@H]2CO)[C@H](N)[C@@H](O)[C@@H]1O [Neomycin sulfate]	Shigella flexneri	inactive

// next entry
Can you look up the reported call for COc1c(N2C[C@@H]3CCCN[C@@H]3C2)c(F)cc2c(=O)c(C(=O)O)cn(C3CC3)c12 [Moxifloxacin] for me?
active

* * *

Test system: S. enterica typhimurium WT
Assay: growth AUC normalised to DMSO control (median) (fraction of control); higher = less growth inhibition, active = hit call of the paper
Settings: 20 µM
Where a name gives a salt, the structure may show the parent alone.
Attribute Measured: growth AUC normalised to DMSO control

Worked cases, growth AUC normalised to DMSO control given:
Compound	growth AUC normalised to DMSO control
CNCCC=C1c2ccccc2C=Cc2ccccc21	0.994 (inactive)
CC(C)=CCC1C(=O)N(c2ccccc2)N(c2ccccc2)C1=O	1 (inactive)
Cc1cccn2c(=O)c(-c3nnn[nH]3)cnc12	0.993 (inactive)

# return recorded growth AUC normalised to DMSO control for input CC(C)(C)NC[C@H](O)COc1ccccc1C1CCCC1 [Penbutolol sulfate]
1 (inactive)

* * *

System: S. enterica typhimurium tolC KO
Assay: growth AUC normalised to DMSO control (median) (fraction of control); higher = less growth inhibition, active = hit call of the paper
Conditions: 20 µM
Attribute Measured: growth AUC normalised to DMSO control
// return just the number, without any unit appended

Worked cases, growth AUC normalised to DMSO control given:
Compound	Attribute Measured	Measured
Cc1cnc(C(=O)NCCc2ccc(S(=O)(=O)NC(=O)NC3CCCCC3)cc2)cn1 [Glipizide]	growth AUC normalised to DMSO control	0.996
C[N+](C)(C)CCCCCC[N+](C)(C)C [Hexamethonium dibromide dihydrate]	growth AUC normalised to DMSO control	1.02
COC(=O)Nc1nc2cc(Sc3ccccc3)ccc2[nH]1 [Fenbendazole]	growth AUC normalised to DMSO control	0.987
CC(C)Cc1ccc([C@H](C)C(=O)O)cc1 [(S,+) Ibuprofen]	growth AUC normalised to DMSO control	1
CCOCCn1c(N2CCCN(C)CC2)nc2ccccc21 [Emedastine difumarate]	growth AUC normalised to DMSO control	0.989
Cc1ccc(C)c(OCCCC(C)(C)C(=O)O)c1 [Gemfibrozil]	growth AUC normalised to DMSO control	0.977
COc1ccc(NS(=O)(=O)c2ccc(N)cc2)nn1 [Sulfamethoxypyridazine]	growth AUC normalised to DMSO control	0.986
CC(C)c1ccc2oc3nc(N)c(C(=O)O)cc3c(=O)c2c1 [Amlexanox]	growth AUC normalised to DMSO control	0.971

// switching to the query compound
# return recorded growth AUC normalised to DMSO control for input C[C@@H]1C[C@H]2[C@@H]3C[C@H](F)C4=CC(=O)C=C[C@]4(C)[C@@]3(Cl)[C@@H](O)C[C@]2(C)[C@H]1C(=O)COC(=O)C(C)(C)C [Clocortolone pivalate]
1.04

* * *

System: P. vulgatus WT
Assay: growth AUC normalised to DMSO control (median) (fraction of control); higher = less growth inhibition, active = hit call of the paper
Details: 20 µM
Counter-ions that a name gives are not always drawn.
Below is a list of entries, each paired with its recorded growth AUC normalised to DMSO control value.
// return just the number, without any unit appended

Molecule	Attribute Measured	Measured
C#C[C@]1(O)CC[C@H]2[C@@H]3CCC4=CCCC[C@@H]4[C@H]3CC[C@@]21C	growth AUC normalised to DMSO control	0.976

# return recorded growth AUC normalised to DMSO control for input CC(C)NCC(O)c1cc(O)cc(O)c1 (stereo not given) [Metaproterenol sulfate]
1

# return recorded growth AUC normalised to DMSO control for input C/C(=C\C(=O)OCCCCCCCCC(=O)O)C[C@@H]1OC[C@H](C[C@@H]2O[C@H]2[C@@H](C)[C@H](C)O)[C@@H](O)[C@H]1O
1.04

# return recorded growth AUC normalised to DMSO control for input O=P(O)(O)C(Cl)(Cl)P(=O)(O)O [Clodronate disodium]
1.01

# return recorded growth AUC normalised to DMSO control for input C[C@H]1O[C@H](O[C@H]2[C@H](O)[C@@H](O)[C@@H](O[C@@H]([C@H](O)[C@@H](O)C=O)[C@H](O)CO)O[C@@H]2CO)[C@H](O)[C@@H](O)[C@@H]1N[C@H]1C=C(CO)[C@@H](O)[C@H](O)[C@H]1O
0.884
